# procedure_details: NCI Yeast Anticancer Drug Screen. Data for the mlh1 rad18 strain (AID 175)
# condition: S. cerevisiae mlh1 rad18 strain growth inhibition; at 50.0 µM; hits give high values
The panel holds about 79,000 compounds, 15% with a hit somewhere; the sample as a whole holds those more often.

compound	uom	growth inhibition
Cc1cc(N(CCC#N)CCC#N)ccc1/C=C(\NC(=O)/C=C/c1ccccc1)NC(=O)Nc1ccc(Cl)cc1	%	29.2
NCCc1ccc(O)c(O)c1	%	1.85
Cc1ccc(N=c2oc3c(ccc4ccccc43)nc2Nc2ccc(C)cc2)cc1	%	-19
C[N+](C)(C)C12CCC(CC1)C1([N+](C)(C)C)CCC2CC1	%	22.1
N#CC(C(=O)O)C1(c2ccccc2)CCCCC1 (configuration not stated)	%	-3.45
O=C(O)/C=C/C(=O)Nc1ccccc1Cl	%	21
CCOC(=O)c1c(C)n2c3c(cccc13)CCC2	%	12.8
